readoutName: melting point

Past entries and their recorded results:
COc1cc(C(=O)NCCCO)cc(OC)c1-c1ccc(C[C@H](NC(=O)c2c(Cl)cccc2Cl)C(=O)O)cc1 = 222 to 223 °C
CN(C)CCOc1cccc(O)c1-c1ccc(C[C@H](NC(=O)c2c(Cl)cccc2Cl)C(=O)O)cc1 = 168 to 169 °C
COc1ccccc1-c1ccc(C[C@@H](NC(=O)c2c(Cl)cccc2Cl)C(=O)O)cc1 = 195 °C
COc1ccc(F)c(OC)c1-c1ccc(C[C@H](NC(=O)c2c(Cl)cccc2Cl)C(=O)O)cc1 [Example 153A] = 228 to 229 °C
COc1cc(C(=O)NC(C)C)cc(OC)c1-c1ccc(C[C@H](NC(=O)c2c(Cl)cccc2Cl)C(=O)O)cc1 = 261 to 262 °C
COc1ccccc1-c1ccc(C[C@H](NC(=O)c2c(Cl)cccc2Cl)C(=O)O)cc1Cl = 131 °C
O=C(N[C@@H](Cc1ccc(-c2c(C(F)(F)F)cccc2C(F)(F)F)cc1)C(=O)O)c1c(Cl)cccc1Cl = 259 to 260 °C
COc1c(C)c(OC)c(-c2ccc(C[C@H](NC(=O)c3c(Cl)cccc3Cl)C(=O)O)cc2)c(OC)c1C = 114 to 115 °C

Provide measured melting point value, entry: CCOC(=O)Nc1cc(C[C@H](NC(=O)c2c(Cl)cccc2Cl)C(=O)O)ccc1-c1c(OC)cccc1OC
216 to 217 °C

Provide measured melting point value, entry: CNCc1cc(OC)c(-c2ccc(C[C@H](NC(=O)c3c(Cl)cccc3Cl)C(=O)O)cc2)c(OC)c1
274 °C
